# System: PC-3
# MEASUREMENT DESCRIPTION: Cytotoxicity against PC3 cells by SRB assay after 48 hrs
# Format: functional
# RUN CONDITIONS: Homo sapiens, PC-3, 48 h
Simple rule here: TGI less than 1 µM is Condition met, otherwise Condition not met.

SMILES TEXT	GROUP LABEL
CN(C)CCCNC(=O)c1ccc(NCCCN(C)CCCNc2ccc3c(=O)n(CCCN(C)C)c(=O)n4c5ccccc5c(=O)c2c34)c2c(O)c3ccccc3nc12	Condition met
CN(C)CCNC(=O)c1ccc(NCCCN(C)CCCN2C(=O)c3cccc4cccc(c34)C2=O)c2c(O)c3cc([N+](=O)[O-])ccc3nc12	Condition met
COc1ccc2nc3c(C(=O)NCCN(C)C)ccc(NCCCN(C)CCCN4C(=O)c5cccc6cccc(c56)C4=O)c3c(O)c2c1.Cl	Condition met
CN(C)CCCn1c(=O)c2ccc(NCCCN(C)CCCN3C(=O)c4cccc5cc([N+](=O)[O-])cc(c45)C3=O)c3c(=O)c4ccccc4n(c1=O)c23	Condition not met
CN(C)CCNC(=O)c1ccc(NCCCN(C)CCCN2C(=O)c3cccc4cccc(c34)C2=O)c2c(O)c3ccccc3nc12	Condition not met
CN(C)CCCNC(=O)c1ccc(NCCCN(C)CCCN2C(=O)c3cccc4cc([N+](=O)[O-])cc(c34)C2=O)c2c(O)c3ccccc3nc12	Condition met
CN(C)CCNC(=O)c1ccc(NCCCN(C)CCCNc2ccc3c(=O)n(CCN(C)C)c(=O)n4c5ccccc5c(=O)c2c34)c2c(O)c3cc([N+](=O)[O-])ccc3nc12.Cl	Condition met
CN(C)CCNC(=O)c1ccc(NCCNCCNCCN2C(=O)c3cccc4cccc(c34)C2=O)c2c(O)c3cc([N+](=O)[O-])ccc3nc12	Condition met
CN(C)CCNC(=O)c1ccc(NCCCN(C)CCCN2C(=O)c3cccc4cc([N+](=O)[O-])cc(c34)C2=O)c2c(O)c3cc([N+](=O)[O-])ccc3nc12	Condition not met
COc1cc2nc3c(C(=O)NCCN(C)C)ccc(NCCCN(C)CCCN4C(=O)c5cccc6cccc(c56)C4=O)c3c(O)c2cc1OC	Condition not met

###

# reported Selectivity ratio; entries follow
# MEASUREMENT DESCRIPTION: Ratio of K(app) for [A-T] to [G-C]
ASSAY READOUT: Selectivity ratio

SMILES TEXT	ASSAY READOUT	VAL
COc1ccc2nc3c(C(=O)NCCN(C)C)ccc(NCCCN(C)CCCN4C(=O)c5cccc6cccc(c56)C4=O)c3c(O)c2c1.Cl	Selectivity ratio	30
CN(C)CCNC(=O)c1ccc(NCCCN(C)CCCN2C(=O)c3cccc4cccc(c34)C2=O)c2c(O)c3ccccc3nc12	Selectivity ratio	4.1
COc1cc2nc3c(C(=O)NCCN(C)C)ccc(NCCCN(C)CCCN4C(=O)c5cccc6cccc(c56)C4=O)c3c(O)c2cc1OC	Selectivity ratio	1.3
CN(C)CCCNC(=O)c1ccc(NCCCN(C)CCCNc2ccc3c(=O)n(CCCN(C)C)c(=O)n4c5ccccc5c(=O)c2c34)c2c(O)c3ccccc3nc12	Selectivity ratio	14

###

# Test system: PC-3
# MEASUREMENT DESCRIPTION: Cytotoxicity against PC3 cells by SRB assay after 48 hrs
# Assay type: functional
# RUN CONDITIONS: Homo sapiens, PC-3, 48 h
Criterion: TGI meeting or surpassing 800 nM. Met: 1 (yes). Not met: 0 (no).

COMPOUND	GROUP LABEL
COc1ccc2c(c1)c(=O)c1c(NCCCN(C)CCCN3C(=O)c4cccc5cccc(c45)C3=O)ccc3c(=O)n(CCN(C)C)c(=O)n2c31	1 (yes)
Cc1ccc2c(c1)c(=O)c1c(NCCCN(C)CCCN3C(=O)c4cccc5cccc(c45)C3=O)ccc3nnn2c31.Cl	1 (yes)
CN(C)CCN1C(=O)c2cccc3cc([N+](=O)[O-])cc(c23)C1=O [MITONAFIDE]	1 (yes)
COc1ccc2c(c1)c(=O)c1c(NCCCN(C)CCCN3C(=O)c4cccc5cc([N+](=O)[O-])cc(c45)C3=O)ccc3c(=O)n(CCN(C)C)c(=O)n2c31	0 (no)
COc1cc2c(=O)c3c(NCCCN(C)CCCN4C(=O)c5cccc6cc([N+](=O)[O-])cc(c56)C4=O)ccc4c(=O)n(CCN(C)C)c(=O)n(c2cc1OC)c43	0 (no)
CN(C)CCCn1c(=O)c2ccc(NCCCN(C)CCCN3C(=O)c4cccc5cccc(c45)C3=O)c3c(=O)c4ccccc4n(c1=O)c23	1 (yes)
